target: FAP-expressing human WI-38 fibroblasts (Homo sapiens (Human), UniProt Q12884); experiment: FACS binding assay (competitive, Cy5-labeled 3BP-2935); details: FAP-expressing WI-38 fibroblasts
Sequence (Q12884 whole entry): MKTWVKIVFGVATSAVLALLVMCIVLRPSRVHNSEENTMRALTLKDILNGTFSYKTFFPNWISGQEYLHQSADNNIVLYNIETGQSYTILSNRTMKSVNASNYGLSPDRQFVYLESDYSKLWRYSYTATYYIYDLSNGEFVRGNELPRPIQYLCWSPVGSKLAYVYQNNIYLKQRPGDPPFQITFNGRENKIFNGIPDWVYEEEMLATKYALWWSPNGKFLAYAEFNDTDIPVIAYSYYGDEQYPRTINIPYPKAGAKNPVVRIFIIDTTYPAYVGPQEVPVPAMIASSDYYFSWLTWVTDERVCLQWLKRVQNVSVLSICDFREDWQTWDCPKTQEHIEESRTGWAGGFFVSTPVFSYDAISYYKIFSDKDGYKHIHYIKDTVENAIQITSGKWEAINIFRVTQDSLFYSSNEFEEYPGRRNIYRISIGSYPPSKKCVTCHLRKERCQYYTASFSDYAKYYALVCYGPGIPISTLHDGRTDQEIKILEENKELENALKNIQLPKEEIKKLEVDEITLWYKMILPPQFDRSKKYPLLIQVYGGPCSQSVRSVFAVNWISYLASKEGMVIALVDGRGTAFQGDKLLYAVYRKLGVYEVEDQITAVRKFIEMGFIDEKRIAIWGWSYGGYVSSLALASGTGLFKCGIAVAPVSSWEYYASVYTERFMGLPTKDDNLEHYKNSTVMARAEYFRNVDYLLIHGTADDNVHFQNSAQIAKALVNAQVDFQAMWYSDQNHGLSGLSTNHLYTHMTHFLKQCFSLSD
propertyLabel: pIC50 (FACS)

>  <molecularString>
CS(=O)(=O)c1ccc(-c2ccc3c(C(=O)NCC(=O)N4CCC[C@H]4C#N)ccnc3c2)cc1

>  <resultNumber>
8.2

$$$$
>  <molecularString>
N#C[C@@H]1CC(F)(F)CN1C(=O)CNC(=O)c1ccnc2ccc(OCCCN3CCN(C(=O)CN4CCN5CCN6CCN(CC4)CC(=O)[O][Eu]([O]C(=O)C6)[O]C(=O)C5)CC3)cc12

>  <resultNumber>
8.6

$$$$
>  <molecularString>
CC(C)(C)OC(=O)N1CCN(CCCOc2ccc3c(c2)c(C(=O)NCC(=O)N2CC(F)(F)C[C@H]2C#N)cc[n+]3[O-])CC1

>  <resultNumber>
8

$$$$
>  <molecularString>
N#C[C@@H]1CCCN1C(=O)CNC(=O)c1ccnc2cc(-c3cccc(C(=O)O)c3)ccc12

>  <resultNumber>
8.6

$$$$
>  <molecularString>
CS(=O)(=O)c1cccc(-c2ccc3c(C(=O)NCC(=O)N4CCC[C@H]4C#N)ccnc3c2)c1

>  <resultNumber>
8.2

$$$$
>  <molecularString>
CC(C)(C)OC(=O)N1CCN(CCCOc2ccc3nccc(C(=O)NCC(=O)N4CC(F)(F)C[C@H]4C#N)c3c2)CC1

>  <resultNumber>
8.4

$$$$

// provenance: patent US20240335569A1
